# subject_of_test: PI3K-α kinase (p110α/p85α) (Homo sapiens)
# Construct: purchased Invitrogen PV4788
# Sequence (P42336 whole entry): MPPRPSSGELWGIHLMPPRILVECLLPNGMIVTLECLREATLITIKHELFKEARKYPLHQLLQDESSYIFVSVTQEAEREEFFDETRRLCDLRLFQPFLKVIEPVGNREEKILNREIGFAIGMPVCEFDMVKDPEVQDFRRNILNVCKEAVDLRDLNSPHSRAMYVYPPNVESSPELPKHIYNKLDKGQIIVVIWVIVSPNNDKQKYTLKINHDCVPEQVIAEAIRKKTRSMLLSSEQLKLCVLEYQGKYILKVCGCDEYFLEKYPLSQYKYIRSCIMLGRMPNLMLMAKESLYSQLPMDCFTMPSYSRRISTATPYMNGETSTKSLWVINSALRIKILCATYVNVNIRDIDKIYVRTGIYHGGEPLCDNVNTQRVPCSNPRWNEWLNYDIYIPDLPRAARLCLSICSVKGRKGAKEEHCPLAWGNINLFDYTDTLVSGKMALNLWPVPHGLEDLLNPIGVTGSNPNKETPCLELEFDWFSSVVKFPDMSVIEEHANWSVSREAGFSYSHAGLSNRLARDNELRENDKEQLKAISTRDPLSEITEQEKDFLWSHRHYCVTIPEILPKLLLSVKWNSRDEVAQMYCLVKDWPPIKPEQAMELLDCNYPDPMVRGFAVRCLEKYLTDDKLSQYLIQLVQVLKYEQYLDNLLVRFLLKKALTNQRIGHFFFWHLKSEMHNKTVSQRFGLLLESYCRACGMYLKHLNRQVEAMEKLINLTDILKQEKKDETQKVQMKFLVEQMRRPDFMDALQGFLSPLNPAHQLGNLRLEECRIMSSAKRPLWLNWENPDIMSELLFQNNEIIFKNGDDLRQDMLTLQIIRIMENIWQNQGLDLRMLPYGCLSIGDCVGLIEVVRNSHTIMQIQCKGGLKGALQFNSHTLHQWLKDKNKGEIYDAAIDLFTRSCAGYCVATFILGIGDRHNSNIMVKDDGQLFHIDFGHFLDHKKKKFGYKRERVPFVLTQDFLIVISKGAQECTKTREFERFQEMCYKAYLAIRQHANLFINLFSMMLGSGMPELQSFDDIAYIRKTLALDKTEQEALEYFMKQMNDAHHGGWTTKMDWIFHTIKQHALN
# Sequence (P27986 whole entry partner): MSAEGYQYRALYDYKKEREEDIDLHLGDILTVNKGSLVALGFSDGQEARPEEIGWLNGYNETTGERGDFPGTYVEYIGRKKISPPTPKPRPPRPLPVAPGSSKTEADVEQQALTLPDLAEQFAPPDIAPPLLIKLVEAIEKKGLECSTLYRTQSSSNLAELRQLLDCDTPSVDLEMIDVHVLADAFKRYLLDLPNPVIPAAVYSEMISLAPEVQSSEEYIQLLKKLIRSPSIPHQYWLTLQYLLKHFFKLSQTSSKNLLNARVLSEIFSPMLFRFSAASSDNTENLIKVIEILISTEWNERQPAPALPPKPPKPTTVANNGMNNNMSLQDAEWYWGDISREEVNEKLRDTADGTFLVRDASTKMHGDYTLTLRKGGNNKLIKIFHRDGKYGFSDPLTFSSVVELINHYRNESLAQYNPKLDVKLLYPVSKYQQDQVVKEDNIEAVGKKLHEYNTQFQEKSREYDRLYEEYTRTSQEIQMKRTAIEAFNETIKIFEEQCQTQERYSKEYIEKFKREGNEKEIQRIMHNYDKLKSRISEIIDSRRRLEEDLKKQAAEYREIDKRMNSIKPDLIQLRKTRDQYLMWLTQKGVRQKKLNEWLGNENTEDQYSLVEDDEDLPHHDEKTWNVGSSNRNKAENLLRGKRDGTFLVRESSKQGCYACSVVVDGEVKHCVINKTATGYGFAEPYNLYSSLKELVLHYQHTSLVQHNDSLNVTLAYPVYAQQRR
# run_description: Determination of PI3K kinase activity (ADP Transcreener, fluorescence polarization)
# Assay type: biochemical
# run_conditions: Table 1; ATP 10 μM; read-out: PI3K-α/nM (IC50 of inhibitory activity against PI3K kinase)
property_name: IC50 (nM)

These solved cases illustrate the format of a correct answer.
>>> print(df.to_string())
                                   molecule                           subject_of_test  quantitative_readout
0  CC(C)S(=O)(=O)C1(c2cc(-c3cnc(N)cc3C(F)(F)F)nc(N3CCOCC3)n2)CCC1  PI3K-α kinase (p110α/p85α) (Homo sapiens)                    80
1  CS(=O)(=O)C(F)c1cc(-c2cnc(N)cc2C(F)(F)F)nc(N2CCOCC2)n1 (stereo not drawn)  PI3K-α kinase (p110α/p85α) (Homo sapiens)                    18
2  COC(C)(C)c1cc(-c2cnc(N)cc2Cl)nc(N2CCOC[C@@H]2C)n1  PI3K-α kinase (p110α/p85α) (Homo sapiens)                    23

I = CC(C)(c1cc(-c2cnc(N)cc2Cl)nc(N2CCOCC2)n1)S(C)(=O)=O
II = C[C@H]1COCCN1c1nc(-c2cnc(N)cc2C(F)(F)F)cc(C2(S(C)(=O)=O)CCC2)n1
Query :: Would you mind telling me which has the lower recorded IC50 between I and II ? Please respond with the label that marks your chosen entry.
Result :: II
(II: 5 nM, I: 17 nM)

P = CN(C1(c2cc(-c3cnc(N)cc3C(F)(F)F)nc(N3CCOCC3)n2)CC1)S(C)(=O)=O
Q = Nc1cc(C(F)(F)F)c(-c2cc(C3(S(=O)(=O)c4ccccc4Cl)CC3)nc(N3CCOCC3)n2)cn1
Query :: Quick check, higher IC50 between P and Q ? Please respond with the label that marks your chosen entry.
Result :: P

a = Nc1cc(C(F)(F)F)c(-c2cc(C3(S(=O)(=O)c4ccccc4F)CC3)nc(N3CCOCC3)n2)cn1
b = CS(=O)(=O)C1(c2cc(N3CCOCC3)nc(-c3cnc(N)cc3C(F)(F)F)n2)CC1 [reference compound]
Query :: Quick check, higher IC50 between a and b ? Please respond with the label that marks your chosen entry.
Result :: b
(b: 90 nM, a: 4 nM)
